Ref: the supplement of paper PMC9112550

Tested on: Escherichia coli TOP10;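 further: peptides expressed intracellularly from a pBAD plasmid library in pooled LB shake-flask culture, induced with 0.3% L-arabinose, DNA abundance read by NGS, three biological replicates, DESeq2 with apeglm shrinkage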
assay overview: shrunken log2 fold change of peptide-encoding DNA abundance (4.5 h post-induction vs induction); higher = less antimicrobial activity (less host growth inhibition)
condition context: time post-induction: 4.5 h; library: site-saturation at positions 5, 18, 19, 20
measurement name: shrunken log2 fold change
Form: value (number only, do not type unit).

Observe how each entry below is paired with its result.
RRIRPRPPRLPRPRPRPACPPRP ... 0.147
RRIRERPPRLPRPRPRPEDIPRP ... -0.00136
RRIRNRPPRLPRPRPRPKGKPRP ... 0.0351
RRIRLRPPRLPRPRPRPRALPRP ... 2.21
RRIRTRPPRLPRPRPRPDLPPRP ... 0.0603
RRIRLRPPRLPRPRPRPYHCPRP ... -0.575
RRIRVRPPRLPRPRPRPYKDPRP ... -0.933
RRIRNRPPRLPRPRPRPALMPRP ... 0.15

Request: Can you share its shrunken log2 fold change? I mean this sequence: RRIRCRPPRLPRPRPRPNQRPRP
Result: -0.093
